Hey, just so you know, these numbers are from paper PMC8921165.

molecular target: Cholesterol 24-hydroxylase (CH24H) (Mus musculus, UniProt Q9WVK8)
Sequence (Q9WVK8 whole entry): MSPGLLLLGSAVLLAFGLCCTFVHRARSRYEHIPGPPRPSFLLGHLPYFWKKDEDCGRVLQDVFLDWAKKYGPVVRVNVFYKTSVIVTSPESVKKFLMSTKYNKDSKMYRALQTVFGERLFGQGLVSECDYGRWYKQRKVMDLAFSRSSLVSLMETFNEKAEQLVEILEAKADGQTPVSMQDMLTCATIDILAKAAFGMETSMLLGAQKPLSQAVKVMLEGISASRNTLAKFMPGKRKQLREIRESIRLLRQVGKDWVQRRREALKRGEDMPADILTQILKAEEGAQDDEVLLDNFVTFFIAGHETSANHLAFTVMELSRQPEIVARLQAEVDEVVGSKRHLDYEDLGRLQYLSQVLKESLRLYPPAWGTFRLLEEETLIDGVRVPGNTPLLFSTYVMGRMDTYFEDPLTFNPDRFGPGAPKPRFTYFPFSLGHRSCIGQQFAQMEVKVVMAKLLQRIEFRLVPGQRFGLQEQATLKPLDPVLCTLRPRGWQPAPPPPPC
quantityKind: pKd
# log scale: pKd equals minus log10 of the concentration in mol/L

The compound O=C(C1CCN(c2cncnc2-c2ccc(F)cc2)CC1)N1CC(F)C1 [T-008] , when measured on Cholesterol 24-hydroxylase (CH24H) (Mus musculus, UniProt Q9WVK8), yielded pKd of 7.85

----------
target: Cholesterol 24-hydroxylase (CH24H) (Macaca mulatta, UniProt A0A5F7ZPE8); test: in vivo PET enzyme occupancy, displacement of […]T-008 in rhesus brain
Sequence (A0A5F7ZPE8 1-500): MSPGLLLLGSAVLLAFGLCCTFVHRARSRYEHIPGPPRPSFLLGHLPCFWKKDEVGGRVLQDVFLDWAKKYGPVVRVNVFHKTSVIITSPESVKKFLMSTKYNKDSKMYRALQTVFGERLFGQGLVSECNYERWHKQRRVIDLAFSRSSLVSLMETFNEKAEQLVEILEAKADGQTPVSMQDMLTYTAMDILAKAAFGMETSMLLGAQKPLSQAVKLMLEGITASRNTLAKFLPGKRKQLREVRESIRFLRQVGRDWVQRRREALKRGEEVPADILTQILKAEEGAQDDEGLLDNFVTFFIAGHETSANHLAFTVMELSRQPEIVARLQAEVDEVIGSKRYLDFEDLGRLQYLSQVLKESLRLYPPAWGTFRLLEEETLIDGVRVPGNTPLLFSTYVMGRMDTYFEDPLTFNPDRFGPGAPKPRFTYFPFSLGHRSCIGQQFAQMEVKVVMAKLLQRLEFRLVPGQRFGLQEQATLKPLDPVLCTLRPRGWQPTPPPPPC
quantityKind: pEC50
# log scale: pEC50 equals minus log10 of the concentration in mol/L

Record `O=C(c1cccnc1-c1ccncc1)N1CCC(O)(Cc2ccccc2)CC1` . Reported pEC50: 8.47
